Biological target: T1, AFP158/HLA-A*02:01 complex (human)
T1 construct: biotinylated on the BSP by BirA for ELISA and panning; also called biotinylated AFP158/HLA-A*02:01 complex; Bio-AFP158
Test: SPR, crude scFv captured;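 note: Peptide–MHC complex flowed at several concentrations over sensorchip-captured scFv, Kd derived from on- and off-rates obtained from the association and dissociation curves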
Can you tell me Kd for the items I'm about to list?
I only need the number, in nM, no unit after it.

AS170036 VL1VH1 HL107T (scFv) scFv: QSALTQPRSVSGSPGQSVTISCAGTSSDVGSENYVSWYQQHPGKAPKLMIYQVNKRASGVPDRFSGSKSGNTASLTISGLQAEDEADYYCASYRSSDHNIVFGGGTKLTVLGGGGSGGGGSGGGGSEVQLVESGGGLVQPGGSLRLSCAASGFTFSSYAMSWVRQAPGKGLEWVSTINSGTGSPYYADSVKGRFTISRDNSKNTLYLQMNSLRAEDTAVYYCAKNFFDGSWFTGPPAMDYWGQGTLVTVSSHHHHHH has a reported Kd of 2800

binder AS170036 VL1VH1 HG56H (scFv) scFv: QSALTQPRSVSGSPGQSVTISCAGTSSDVGSENYVSWYQQHPGKAPKLMIYQVNKRASGVPDRFSGSKSGNTASLTISGLQAEDEADYYCASYRSSDHNIVFGGGTKLTVLGGGGSGGGGSGGGGSEVQLVESGGGLVQPGGSLRLSCAASGFTFSSYAMSWVRQAPGKGLEWVSTINSGTHSPYYADSVKGRFTISRDNSKNTLYLQMNSLRAEDTAVYYCAKNFFDGSWFLGPPAMDYWGQGTLVTVSSHHHHHH , Kd observed: 150

The binder listed as AS170036 VL1VH1-VHG56F (scFv) scFv: QSALTQPRSVSGSPGQSVTISCAGTSSDVGSENYVSWYQQHPGKAPKLMIYQVNKRASGVPDRFSGSKSGNTASLTISGLQAEDEADYYCASYRSSDHNIVFGGGTKLTVLGGGGSGGGGSGGGGSEVQLVESGGGLVQPGGSLRLSCAASGFTFSSYAMSWVRQAPGKGLEWVSTINSGTFSPYYADSVKGRFTISRDNSKNTLYLQMNSLRAEDTAVYYCAKNFFDGSWFLGPPAMDYWGQGTLVTVSSHHHHHH shows Kd equal to 98

Source of measurements: patent US20240279318A1
